test: qHTS RealTime-Glo MT Cell Viability Assay in HepG2 cells - 24 hour (AID 1224867); settings: RealTime-Glo luminescence; series mostly up to 76.8 µM; also: nearly all actives have a fitted effect of over 50% in size
Records with an inconclusive call do not appear. The source made the active and inactive calls. Calls follow the shape of the dose curve; as a rule, active = well fitted cell-killing curve with a large enough effect in the repeat runs; inconclusive = weak or mixed curves; inactive = flat fitted curve, though single readings scatter.
Pick from class 1 = active, class 0 = inactive when you respond.

Qu. Hi team, can someone confirm the assay call for Cc1[nH]cnc1CN1CCc2c(c3ccccc3n2C)C1=O ?
Ans. class 0

Qu. Hi team, can someone confirm the assay call for Cc1ccc(C(C)(C)O)cc1 ?
Ans. class 0

Qu. Hi team, can someone confirm the assay call for NNC(=O)CP(=O)(c1ccccc1)c1ccccc1 ?
Ans. class 0

Qu. Hi team, can someone confirm the assay call for Nc1ncnc2c1ncn2[C@H]1CC[C@@H](CO)O1 ?
Ans. class 0

Qu. Hi team, can someone confirm the assay call for CCCCCCCC/C=C\CCCCCCCCCCCC(=O)O ?
Ans. class 0

Qu. Hi team, can someone confirm the assay call for O=[N+]([O-])c1ccc(Nc2ccc(Nc3ccccc3)c(S(=O)(=O)O)c2)c([N+](=O)[O-])c1 ?
Ans. class 0

Qu. Hi team, can someone confirm the assay call for CCOC(=O)c1ccc(I)cc1 ?
Ans. class 0

Qu. Hi team, can someone confirm the assay call for COc1cc(N)c(Cl)cc1C(=O)NC1CCN(CCCOc2ccc(F)cc2)CC1OC (configuration not stated) ?
Ans. class 0

Qu. Hi team, can someone confirm the assay call for CCOC(=O)[C@H](CCc1ccccc1)N[C@@H](C)C(=O)N(CC(=O)O)C1Cc2ccccc2C1 ?
Ans. class 0

Qu. Hi team, can someone confirm the assay call for CCC(=O)OC ?
Ans. class 0

Qu. Hi team, can someone confirm the assay call for O=C(OCC(O)CO)c1ccccc1Nc1ccnc2cc(Cl)ccc12 (configuration not stated) ?
Ans. class 0

Qu. Hi team, can someone confirm the assay call for O=c1c(O)c(-c2ccc(O)cc2)oc2cc(O)cc(O)c12 ?
Ans. class 0

Qu. Hi team, can someone confirm the assay call for CCC(C)COC(C)=O (configuration not stated) ?
Ans. class 0

Qu. Hi team, can someone confirm the assay call for N#[N+]c1ccc2c(S(=O)(=O)[O-])cccc2c1O ?
Ans. class 0

Qu. Hi team, can someone confirm the assay call for CC(=O)[C@H]1[C@H](C#N)C[C@H]2[C@@H]3CC=C4C[C@@H](O)CC[C@]4(C)[C@H]3CC[C@@]21C ?
Ans. class 0

Qu. Hi team, can someone confirm the assay call for Brc1cc(Br)c(Oc2cc(Br)c(Br)cc2Br)cc1Br ?
Ans. class 0

Qu. Hi team, can someone confirm the assay call for C/C=C\C/C=C/CCCCCCCCOC(C)=O ?
Ans. class 0

Qu. Hi team, can someone confirm the assay call for O=C1Cc2cc(Cl)ccc2N1 ?
Ans. class 0

Qu. Hi team, can someone confirm the assay call for O=C=Nc1ccc(Cl)c(Cl)c1 ?
Ans. class 0

Qu. Hi team, can someone confirm the assay call for CCC(OCCCOC)OC(C)=O (configuration not stated) ?
Ans. class 0

Qu. Hi team, can someone confirm the assay call for CCCC(=O)C(=O)O ?
Ans. class 0

Qu. Hi team, can someone confirm the assay call for Oc1cc2c(cc1O)[C@H]1c3ccc(O)c(O)c3OC[C@@]1(O)C2 ?
Ans. class 1

Qu. Hi team, can someone confirm the assay call for CCCCN1CCCC1C(=O)Nc1c(C)cc(C)cc1C (configuration not stated) ?
Ans. class 0

Qu. Hi team, can someone confirm the assay call for Cc1ccco1 ?
Ans. class 0

Qu. Hi team, can someone confirm the assay call for CCCCCCCCCCC(=O)O ?
Ans. class 0

Qu. Hi team, can someone confirm the assay call for CCOc1ccccc1O[C@H](c1ccccc1)[C@H]1CNCCO1 ?
Ans. class 0

Qu. Hi team, can someone confirm the assay call for O=C(O)CCCCCCCCCCCBr ?
Ans. class 0
